Origin of values: ChEMBL document CHEMBL1149697

assay system: UniProt:P06401
Sequence (P06401 whole entry): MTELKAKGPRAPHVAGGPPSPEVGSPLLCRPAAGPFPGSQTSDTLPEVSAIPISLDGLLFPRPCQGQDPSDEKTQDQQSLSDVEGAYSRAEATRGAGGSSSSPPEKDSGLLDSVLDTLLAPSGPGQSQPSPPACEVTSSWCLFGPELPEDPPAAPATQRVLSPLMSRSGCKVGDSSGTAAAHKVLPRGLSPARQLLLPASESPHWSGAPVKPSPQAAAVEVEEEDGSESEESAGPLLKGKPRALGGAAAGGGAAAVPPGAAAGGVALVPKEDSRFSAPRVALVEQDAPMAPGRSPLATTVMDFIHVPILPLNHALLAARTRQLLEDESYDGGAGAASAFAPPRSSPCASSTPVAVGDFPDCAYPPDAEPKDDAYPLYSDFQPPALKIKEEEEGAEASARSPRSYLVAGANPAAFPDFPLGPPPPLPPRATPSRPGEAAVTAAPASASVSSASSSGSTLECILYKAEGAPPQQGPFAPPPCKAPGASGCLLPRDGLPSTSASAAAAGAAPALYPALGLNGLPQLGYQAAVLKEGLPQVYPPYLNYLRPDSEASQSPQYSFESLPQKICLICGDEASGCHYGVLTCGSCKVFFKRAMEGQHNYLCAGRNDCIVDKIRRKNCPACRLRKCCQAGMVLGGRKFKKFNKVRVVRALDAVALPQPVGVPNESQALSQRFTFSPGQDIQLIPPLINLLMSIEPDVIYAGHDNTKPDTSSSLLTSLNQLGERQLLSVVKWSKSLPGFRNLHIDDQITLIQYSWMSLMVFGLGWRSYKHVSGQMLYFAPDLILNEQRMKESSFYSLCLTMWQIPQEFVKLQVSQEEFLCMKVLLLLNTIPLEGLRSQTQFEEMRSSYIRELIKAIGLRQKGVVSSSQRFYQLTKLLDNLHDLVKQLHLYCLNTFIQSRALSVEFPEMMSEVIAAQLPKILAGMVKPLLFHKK
method description: Displacement of TAMRA labeled mifepristone at human progesterone receptor in insect cell
pIC50: −log10 of the molar value.
# reported pIC50; entries follow

// returns reported pIC50 for input COc1ccc(F)cc1C(C)(C)CC(O)(CCc1ccccc1)C(F)(F)F (stereo unspecified)
< 5.89

----------
assay system: Glucocorticoid receptor (Homo sapiens, UniProt P04150)
Sequence (P04150 whole entry): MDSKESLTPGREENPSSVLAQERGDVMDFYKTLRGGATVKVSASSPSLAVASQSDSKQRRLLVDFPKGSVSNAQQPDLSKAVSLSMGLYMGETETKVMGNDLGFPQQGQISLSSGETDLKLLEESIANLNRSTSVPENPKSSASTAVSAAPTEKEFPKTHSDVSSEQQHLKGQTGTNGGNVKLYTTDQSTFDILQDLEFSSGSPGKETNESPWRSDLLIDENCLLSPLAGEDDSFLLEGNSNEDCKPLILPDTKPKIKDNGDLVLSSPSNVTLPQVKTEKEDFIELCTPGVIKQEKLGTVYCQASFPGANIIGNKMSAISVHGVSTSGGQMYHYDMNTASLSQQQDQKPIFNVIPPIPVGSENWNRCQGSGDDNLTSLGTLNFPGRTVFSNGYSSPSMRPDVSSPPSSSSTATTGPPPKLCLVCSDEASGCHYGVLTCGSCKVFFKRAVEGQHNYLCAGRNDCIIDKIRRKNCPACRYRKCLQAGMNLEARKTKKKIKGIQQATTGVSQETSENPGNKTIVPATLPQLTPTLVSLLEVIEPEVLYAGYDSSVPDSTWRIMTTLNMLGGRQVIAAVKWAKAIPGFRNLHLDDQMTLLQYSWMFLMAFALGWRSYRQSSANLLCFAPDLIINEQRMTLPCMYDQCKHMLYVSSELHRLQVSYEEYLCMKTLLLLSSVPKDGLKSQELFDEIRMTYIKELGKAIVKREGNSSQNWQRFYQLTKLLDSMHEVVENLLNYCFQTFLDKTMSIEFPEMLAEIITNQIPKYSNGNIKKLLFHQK
quantity: IC50 (µM)
Report only the number, with the unit µM understood.

// returns reported IC50 for input COc1ccc(F)cc1C(C)(C)CC(O)(Cc1cccc(Cl)c1Cl)C(F)(F)F (stereo not drawn)
0.076

// returns reported IC50 for input COc1ccc(F)cc1C(C)(C)CC(O)(Cc1ccc(C#N)c2ccccc12)C(F)(F)F (stereo not drawn)
0.021
